EXPERIMENTAL SYSTEM: FLJ20589 clone-derived protein (human hippocalcin-like protein 1, VILIP-3) (Homo sapiens, UniProt P37235)
Construct: A human full-length cDNA clone was expressed as a protein with an N-terminal His tag; His tag (N); made in house; host or cells: Escherichia coli BL21star(DE3)pLysS (pDEST17 Gateway expression plasmid)
PROTOCOL: SEC/MS interaction analysis (size exclusion spin column and mass analysis) with FLJ20589 clone-derived protein
Assay type: binding
EXPERIMENTAL CONDITIONS: protein 0 μM (protein-free reference), compound 250 μM
ENDPOINT: spectral intensity of the compound in the SEC spin column filtrate (protein fraction)

| COMPOUND | ASSAY VALUE |
| --- | --- |
| Fc1ccc(C(c2ccc(F)cc2)N2CCN(C/C=C/c3ccccc3)CC2)cc1 [Flunarizine] | 253795 |
| CN1CCN(CCCN2c3ccccc3Sc3ccc(C(F)(F)F)cc32)CC1 [Trifluoperazine] | 4146130 |
| c1ccc(-c2ccc(C(c3ccccc3)n3ccnc3)cc2)cc1 (stereo not shown) [Bifonazole] | 3779926 |
| O=C1CN=C(c2ccccc2)c2cc(Cl)ccc2N1CC1CC1 [prazepam] | 8158416 |
